Assay type: physicochemical
condition details: ThT-active if fluorescence at least twice the control
For each entry below, report its ThT Cat. / ThT-Fluorescence (categorical) value.

substance: PPFHPPPFHP
result: 0 (ThT-inactive (N-Fold <2))

For each entry beneath this line, provide reported ThT Cat. / ThT-Fluorescence (categorical).
1. KIKQIINM
2. IFQINS [reference compound]
3. KNERIKNERI
4. KIEIQINM
5. KIKIQINMW
6. KIKIQINMWQ

Reply:
1: 0 (ThT-inactive (N-Fold <2)); 2: 1 (ThT. Cat is 1, if Rel. ThT >2); 3: 0 (ThT-inactive (N-Fold <2)); 4: 0 (ThT-inactive (N-Fold <2)); 5: 1 (ThT. Cat is 1, if Rel. ThT >2); 6: 1 (ThT. Cat is 1, if Rel. ThT >2)
